Tested on: H1299
Experiment: difference in mean normalized H2B-mRuby nuclear fluorescence intensity relative to DMSO control (normalized intensity difference (DMSO = 0)); higher = stronger increase in transgene reporter fluorescence
Conditions: concentration: 1; 24 h
Examples of compounds with documented difference follow.
Would you mind answering with just the numeric figure?

Please review the following examples before continuing.
COMPOUND: CNC(=O)c1ccccc1Sc1ccc2c(/C=C/c3ccccn3)n[nH]c2c1 (concentration unit: uM)
difference: -0.0324

COMPOUND: O=c1[nH]cc(F)c(=O)[nH]1 (concentration unit: uM)
difference: -0.0723

COMPOUND: COc1cc(Nc2c(C#N)cnc3cc(OCCCN4CCN(C)CC4)c(OC)cc23)c(Cl)cc1Cl (concentration unit: uM)
difference: -0.134

COMPOUND: C[C@@H](Oc1cc(-c2cnn(C3CCNCC3)c2)cnc1N)c1c(Cl)ccc(F)c1Cl (concentration unit: uM)
difference: -0.111

COMPOUND: Cn1ncnc1[C@H]1c2n[nH]c(=O)c3cc(F)cc(c23)N[C@@H]1c1ccc(F)cc1 (concentration unit: uM)
difference: 0.0403

We next turn to a different compound, shown below.
Query: Recorded difference for O=C(NOC[C@H](O)CO)c1ccc(F)c(F)c1Nc1ccc(I)cc1F (concentration unit: uM) with H1299, please?
Response: -0.174

Cited source for all entries: the supplement of paper PMC11026393
